target: human factor Xa (Enzyme Research Laboratories, Inc.) (human, UniProt P00742 41-179; P00742 235-488, limits assumed); assay: chromogenic FXa inhibition
Sequence (P00742 41-179 limits assumed, chain 1 of 2): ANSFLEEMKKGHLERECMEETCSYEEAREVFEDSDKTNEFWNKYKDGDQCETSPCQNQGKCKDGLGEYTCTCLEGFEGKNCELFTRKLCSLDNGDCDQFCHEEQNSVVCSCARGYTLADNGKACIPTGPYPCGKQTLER
Sequence (P00742 235-488 limits assumed, chain 2 of 2): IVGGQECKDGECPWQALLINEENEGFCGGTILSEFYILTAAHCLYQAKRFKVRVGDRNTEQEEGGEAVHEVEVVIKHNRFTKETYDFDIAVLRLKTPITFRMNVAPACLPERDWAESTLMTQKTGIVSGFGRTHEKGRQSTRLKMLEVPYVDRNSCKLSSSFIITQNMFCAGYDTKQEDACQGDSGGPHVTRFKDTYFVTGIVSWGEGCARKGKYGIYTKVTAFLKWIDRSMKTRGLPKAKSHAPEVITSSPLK
pKi: −log10 of the molar value. Non-standard residues stand in square brackets, D forms with d. Phe(4-NH2) = Nc1ccc(C[C@H](N)C(=O)O)cc1; 1Nal = N[C@@H](Cc1cccc2ccccc12)C(=O)O
Recorded pKi by entry

Please review the following examples before continuing.
Ac-[1Nal]IRLP-NH2 [Ac-Nal(1)-I-R-L-P-NH2]
> 4.00
XIRLP (N-term Tfa; Y1=Y(Me) O-methyl tyrosine; C-term NH2) [Tfa-Y(Me)I-R-L-P-NH2]
> 4.00

// below: pKi requested for another binder
pKi reported for this binder Ac-[Phe(4-NH2)]IRLP-NH2 (SMILES CC[C@H](C)[C@H](NC(=O)[C@H](Cc1ccc(N)cc1)NC(C)=O)C(=O)N[C@@H](CCCNC(=N)N)C(=O)N[C@@H](CC(C)C)C(=O)N1CCC[C@H]1C(N)=O) [Ac-F(pNH2)-I-R-L-P-NH2] : > 4.00
